system: Caspase-3 (Homo sapiens)
Sequence (P42574 29-175 limits assumed): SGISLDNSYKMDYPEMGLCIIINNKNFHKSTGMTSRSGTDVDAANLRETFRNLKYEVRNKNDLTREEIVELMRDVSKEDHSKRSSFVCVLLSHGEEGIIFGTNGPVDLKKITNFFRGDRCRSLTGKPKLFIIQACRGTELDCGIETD
Sequence (P42574 176-277 limits assumed): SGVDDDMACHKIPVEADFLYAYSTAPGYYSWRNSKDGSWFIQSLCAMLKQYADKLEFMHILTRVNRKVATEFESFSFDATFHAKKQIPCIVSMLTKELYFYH
procedure.details: Caspase-3 progress curve inhibition assay
assay.conditions: second-order rate constant; Ac-DEVD-AMC substrate; Pipes buffer pH 7.2
assay.readout: k2 Caspase-3

Worked cases, answers included:
CC(C)[C@H](NC(=O)[C@H](CCC(=O)O)NC(=O)[C@H](CC(=O)O)NC(=O)OCc1ccccc1)C(=O)NN(CC(=O)O)C(=O)/C=C/C(=O)NCc1ccccc1 (relative stereo) [Cbz-Asp-Glu-Val-AAsp-CH═CH—CONHCH2Ph]: 1,750,000 M^−1s^−1
CCOC(=O)/C=C/C(=O)N(CC(=O)O)NC(=O)[C@@H](NC(=O)[C@H](CCC(=O)O)NC(=O)[C@H](CC(C)C)NC(=O)OCc1ccccc1)[C@@H](C)O (relative stereo) [Cbz-Leu-Glu-Thr-AAsp-CH═CH—COOEt]: 5,560 M^−1s^−1
CC[C@H](C)[C@H](NC(=O)OCc1ccccc1)C(=O)N[C@@H](CCC(=O)O)C(=O)N[C@H](C(=O)NN(CC(=O)O)C(=O)/C=C/C(=O)NCCc1ccccc1)[C@@H](C)O (relative stereo) [Cbz-Ile-Glu-Thr-AAsp-CH═CH—CONHCH2CH2Ph]: 4,750 M^−1s^−1

Here are 2 molecules. What values of k2 Caspase-3 were reported for them?
1. CC(C)[C@H](NC(=O)OCc1ccccc1)C(=O)NN(CC(=O)O)C(=O)/C=C/C(=O)NCc1ccccc1 (stereo in doubt) [Cbz-Val-AAsp-CH═CH—CONHCH2Ph]
2. CC[C@H](C)[C@H](NC(=O)OCc1ccccc1)C(=O)N[C@@H](CCC(=O)O)C(=O)N[C@H](C(=O)NN(CC(=O)O)C(=O)/C=C/C(=O)N(C)CCc1ccccc1)[C@@H](C)O (relative stereo)

Outgoing:
1. 185 M⁻¹ s⁻¹
2. 5,480 M^−1s^−1

CC[C@H](C)[C@H](NC(=O)OCc1ccccc1)C(=O)N[C@@H](CCC(=O)O)C(=O)N[C@H](C(=O)NN(CC(=O)O)C(=O)/C=C/C(=O)NCc1ccccc1)[C@@H](C)O (relative stereo) [Cbz-Ile-Glu-Thr-AAsp-CH═CH—CONHCH2Ph] yielded k2 Caspase-3 of 2,250 M^−1s^−1

###

For each entry below, report its k2 Gingipain K value.
system: Gingipain K (Porphyromonas gingivalis, UniProt Q51817)
Sequence (Q51817 229-1732 limits assumed): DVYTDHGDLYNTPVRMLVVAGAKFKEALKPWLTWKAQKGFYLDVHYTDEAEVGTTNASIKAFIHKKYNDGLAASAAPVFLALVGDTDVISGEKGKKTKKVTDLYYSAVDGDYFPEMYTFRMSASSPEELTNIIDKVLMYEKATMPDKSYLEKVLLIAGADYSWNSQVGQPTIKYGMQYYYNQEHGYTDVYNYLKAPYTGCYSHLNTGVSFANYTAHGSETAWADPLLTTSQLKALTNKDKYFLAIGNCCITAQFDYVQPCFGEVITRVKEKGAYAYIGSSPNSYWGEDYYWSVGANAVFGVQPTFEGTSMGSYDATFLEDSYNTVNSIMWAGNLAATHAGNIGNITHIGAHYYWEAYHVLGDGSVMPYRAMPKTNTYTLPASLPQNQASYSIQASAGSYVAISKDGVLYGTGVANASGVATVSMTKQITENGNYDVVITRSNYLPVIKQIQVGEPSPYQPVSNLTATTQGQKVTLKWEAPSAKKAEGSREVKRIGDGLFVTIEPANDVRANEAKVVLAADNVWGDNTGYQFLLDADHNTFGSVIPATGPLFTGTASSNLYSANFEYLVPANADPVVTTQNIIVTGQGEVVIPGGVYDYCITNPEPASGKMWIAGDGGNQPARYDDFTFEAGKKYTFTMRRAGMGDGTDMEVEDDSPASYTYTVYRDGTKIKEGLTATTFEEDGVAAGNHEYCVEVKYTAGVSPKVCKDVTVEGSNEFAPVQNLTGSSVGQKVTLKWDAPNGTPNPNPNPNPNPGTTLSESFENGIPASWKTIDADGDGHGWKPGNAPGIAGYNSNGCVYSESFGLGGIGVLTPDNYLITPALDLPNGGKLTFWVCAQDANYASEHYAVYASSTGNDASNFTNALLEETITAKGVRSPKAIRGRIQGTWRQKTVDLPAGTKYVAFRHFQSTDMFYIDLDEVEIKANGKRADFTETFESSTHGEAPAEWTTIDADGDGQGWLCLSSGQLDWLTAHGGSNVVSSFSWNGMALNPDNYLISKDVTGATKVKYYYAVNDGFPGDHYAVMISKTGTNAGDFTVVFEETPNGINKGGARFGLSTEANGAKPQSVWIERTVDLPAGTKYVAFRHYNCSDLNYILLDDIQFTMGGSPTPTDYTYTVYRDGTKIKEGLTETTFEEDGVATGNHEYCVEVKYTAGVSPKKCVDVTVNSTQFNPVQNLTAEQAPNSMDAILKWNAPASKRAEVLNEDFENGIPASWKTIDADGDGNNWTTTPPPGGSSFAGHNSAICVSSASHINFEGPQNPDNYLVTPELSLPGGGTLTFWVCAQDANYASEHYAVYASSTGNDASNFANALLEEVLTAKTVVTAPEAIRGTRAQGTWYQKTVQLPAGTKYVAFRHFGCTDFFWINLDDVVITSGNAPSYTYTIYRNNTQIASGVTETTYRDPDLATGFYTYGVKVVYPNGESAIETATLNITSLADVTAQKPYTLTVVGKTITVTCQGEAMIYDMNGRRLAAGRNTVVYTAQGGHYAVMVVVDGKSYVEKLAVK
procedure.details: biochemical
Type: biochemical
assay.conditions: Table 3; Suc-Ala-Phe-Lys-AMC substrate; pH 8.0

CC(C)CC(NC(=O)CCc1ccccc1)C(=O)NN(CCCCN)C(=O)C=CC(=O)N(C)Cc1cccc2ccccc12 (stereo not shown): 975,000 M^−1s^−1
CCOC(=O)C=CC(=O)N(CCCNC(=N)N)NC(=O)C(CC(C)C)NC(=O)CCc1ccccc1 (stereo not shown): 1,580 M^−1s^−1
CC(C)C[C@H](NC(=O)CCc1ccccc1)C(=O)NN(CCCN)C(=O)C=CC(=O)NCc1ccccc1: 24,700 M^−1s^−1
CC(C)C[C@H](NC(=O)CCc1ccccc1)C(=O)NN(CCCN)C(=O)C=CC(=O)N(Cc1ccccc1)Cc1ccccc1: 61,600 M^−1s^−1

Here are 5 compounds. What values of k2 Gingipain K were reported for them?
1. CC(C)C[C@H](NC(=O)CCc1ccccc1)C(=O)NN(CCCCN)C(=O)C=CC(=O)N(Cc1ccccc1)Cc1ccc2ccccc2c1
2. CCOC(=O)C=CC(=O)N(CCCCN)NC(=O)[C@H](CC(C)C)NC(=O)CCc1ccccc1
3. CC(C)CC(NC(=O)CCc1ccccc1)C(=O)NN(CCCCN)C(=O)C=CC(=O)N(Cc1cccc2ccccc12)Cc1cccc2ccccc12 (stereo not shown)
4. CCOC(=O)C=CC(=O)N(CCCN)NC(=O)C(C)NC(=O)CCc1ccccc1 (stereo not shown)
5. CCOC(=O)C=CC(=O)N(CCCN)NC(=O)[C@H](CC(C)C)NC(=O)CCc1ccccc1

Outgoing:
811,000 M^−1s^−1
3,280,000 M^−1s^−1
1,890,000 M^−1s^−1
632,000 M^−1s^−1
927,000 M^−1s^−1

Here are 4 compounds. What values of k2 Gingipain K were reported for them?
1. CC(C)CC(NC(=O)CCc1ccccc1)C(=O)NN(CCCCN)C(=O)C=CC(=O)N(Cc1ccccc1)Cc1ccccc1 (stereo not shown)
2. CC(C)CC(NC(=O)CCc1ccccc1)C(=O)NN(CCCCN)C(=O)C=CC(=O)N(C)Cc1ccccc1 (stereo not shown)
3. CC(C)C[C@H](NC(=O)CCc1ccccc1)C(=O)NN(CCCCN)C(=O)C=CC(=O)N(Cc1ccccc1)Cc1ccc(F)cc1
4. CC(C)C[C@H](NC(=O)CCc1ccccc1)C(=O)NN(CCCCN)C(=O)C=CC(=O)NCc1ccccc1

Outgoing:
2,130,000 M^−1s^−1
1,360,000 M^−1s^−1
801,000 M^−1s^−1
236,000 M^−1s^−1

###

system: Caspase-9 (Homo sapiens, UniProt P55211)
Sequence (P55211 1-315 limits assumed): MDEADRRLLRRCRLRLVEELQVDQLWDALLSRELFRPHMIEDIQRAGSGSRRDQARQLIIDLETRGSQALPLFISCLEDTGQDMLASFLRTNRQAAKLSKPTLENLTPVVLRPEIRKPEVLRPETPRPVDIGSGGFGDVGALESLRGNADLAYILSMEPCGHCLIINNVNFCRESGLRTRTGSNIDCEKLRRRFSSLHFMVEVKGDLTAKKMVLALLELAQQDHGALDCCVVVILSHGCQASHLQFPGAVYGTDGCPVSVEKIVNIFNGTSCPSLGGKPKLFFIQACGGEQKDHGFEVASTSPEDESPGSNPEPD
Sequence (P55211 331-416 limits assumed): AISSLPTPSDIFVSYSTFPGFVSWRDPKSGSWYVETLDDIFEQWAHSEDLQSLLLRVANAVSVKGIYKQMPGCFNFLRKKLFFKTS
procedure.details: Caspase-9 progress curve inhibition assay
assay.conditions: second-order rate constant; Ac-LEHD-AFC substrate; Hepes buffer pH 7.0 with 0.7 M sodium citrate
For each entry below, report its k2 Caspase-9 value.
Numbers only, in M⁻¹ s⁻¹.

Here are 8 compounds. What values of k2 Caspase-9 were reported for them?
1. CCCCNC(=O)/C=C/C(=O)N(CC(=O)O)NC(=O)[C@@H](NC(=O)OCc1ccccc1)C(C)C (stereo in doubt) [Cbz-Val-AAsp-CH═CH—CONH-nBu]
2. CC(C)[C@H](NC(=O)[C@H](CCC(=O)O)NC(=O)[C@H](CC(=O)O)NC(=O)OCc1ccccc1)C(=O)NN(CC(=O)O)C(=O)/C=C/C(=O)NCc1ccc(F)cc1 (relative stereo)
3. CC(C)[C@H](NC(=O)[C@H](CCC(=O)O)NC(=O)[C@H](CC(=O)O)NC(=O)OCc1ccccc1)C(=O)NN(CC(=O)O)C(=O)/C=C/C(=O)N(C)CCc1ccccc1 (relative stereo)
4. CCOC(=O)/C=C/C(=O)N(CC(=O)O)NC(=O)[C@@H](NC(=O)[C@H](CCC(=O)O)NC(=O)[C@H](CC(C)C)NC(=O)OCc1ccccc1)[C@@H](C)O (relative stereo) [Cbz-Leu-Glu-Thr-AAsp-CH═CH—COOEt]
5. CC(C)[C@H](NC(=O)OCc1ccccc1)C(=O)NN(CC(=O)O)C(=O)/C=C/c1ccc(Cl)cc1 (stereo in doubt) [Cbz-Val-AAsp-CH═CH-4-Cl—Ph]
6. CC[C@H](C)[C@H](NC(=O)OCc1ccccc1)C(=O)N[C@@H](CCC(=O)O)C(=O)N[C@H](C(=O)NN(CC(=O)O)C(=O)/C=C/C(=O)Nc1ccccc1)[C@@H](C)O (relative stereo) [Cbz-Ile-Glu-Thr-AAsp-CH═CH—CONHPh]
7. CC(C)[C@H](NC(=O)[C@H](CCC(=O)O)NC(=O)[C@H](CC(=O)O)NC(=O)OCc1ccccc1)C(=O)NN(CC(=O)O)C(=O)/C=C/C(=O)N(C)Cc1ccccc1 (relative stereo) [Cbz-Asp-Glu-Val-AAsp-CH═CH—CON(CH3)CH2Ph]
8. CC(C)[C@H](NC(=O)OCc1ccccc1)C(=O)NN(CC(=O)O)C(=O)/C=C\Cl (stereo in doubt) [Cbz-Val-AAsp-CH═CH—Cl]

Outgoing:
[32, 900, 425, 37, 19, 940, 820, 15]

CC[C@H](C)[C@H](NC(=O)OCc1ccccc1)C(=O)N[C@@H](CCC(=O)O)C(=O)N[C@H](C(=O)NN(CC(=O)O)C(=O)/C=C/C(=O)N(C)Cc1ccccc1)[C@@H](C)O (relative stereo) [Cbz-Ile-Glu-Thr-AAsp-CH═CH—CON(CH3)CH2Ph] yielded k2 Caspase-9 of 845

###

system: Caspase-3 (Homo sapiens)
procedure.details: Caspase-3 progress curve inhibition assay
assay.conditions: second-order rate constant; Ac-DEVD-AMC substrate; Pipes buffer pH 7.2
For each entry below, report its k2 Caspase-3 value.

CCOC(=O)/C=C/C(=O)N(CC(=O)O)NC(=O)[C@@H](NC(=O)[C@H](CCC(=O)O)NC(=O)[C@@H](NC(=O)OCc1ccccc1)C(C)C)C(C)C (relative stereo): 41,200 M^−1s^−1
CC(C)[C@H](NC(=O)[C@H](CCC(=O)O)NC(=O)[C@H](CC(=O)O)NC(=O)OCc1ccccc1)C(=O)NN(CC(=O)O)C(=O)/C=C/C(=O)NCc1ccc(F)cc1 (relative stereo): 2,100,000 M^−1s^−1
CCOC(=O)/C=C\C(=O)N(CC(=O)O)NC(=O)[C@@H](NC(=O)[C@H](CCC(=O)O)NC(=O)[C@H](CC(=O)O)NC(=O)OCc1ccccc1)C(C)C (relative stereo) [Cbz-Asp-Glu-Val-AAsp-CH═CH—COOEt (cis)]: 1,060,000 M^−1s^−1
CCOC(=O)/C=C/C(=O)N(CC(=O)O)NC(=O)[C@@H](NC(=O)OCc1ccccc1)C(C)C (stereo in doubt): 8,000 M^−1s^−1

Here are 3 molecules. What values of k2 Caspase-3 were reported for them?
1. CC(C)C[C@H](NC(=O)OCc1ccccc1)C(=O)N[C@@H](CCC(=O)O)C(=O)N[C@H](C(=O)NN(CC(=O)O)C(=O)/C=C/C(=O)NCc1ccc(F)cc1)[C@@H](C)O (relative stereo)
2. CC(C)C[C@H](NC(=O)OCc1ccccc1)C(=O)N[C@@H](CCC(=O)O)C(=O)N[C@H](C(=O)NN(CC(=O)O)C(=O)/C=C/C(=O)N(C)Cc1cccc2ccccc12)[C@@H](C)O (relative stereo)
3. CC(C)C[C@H](NC(=O)OCc1ccccc1)C(=O)N[C@@H](CCC(=O)O)C(=O)N[C@H](C(=O)NN(CC(=O)O)C(=O)/C=C/C(=O)Nc1ccccc1)[C@@H](C)O (relative stereo)

Outgoing:
1. 4,490 M^−1s^−1
2. 11,200 M^−1s^−1
3. 4,700 M^−1s^−1

Here are 2 molecules. What values of k2 Caspase-3 were reported for them?
1. CC[C@H](C)[C@H](NC(=O)OCc1ccccc1)C(=O)N[C@@H](CCC(=O)O)C(=O)N[C@H](C(=O)NN(CC(=O)O)C(=O)/C=C/C(=O)N(C)Cc1ccccc1)[C@@H](C)O (relative stereo)
2. CC(C)[C@H](NC(=O)[C@H](CCC(=O)O)NC(=O)[C@H](CC(=O)O)NC(=O)OCc1ccccc1)C(=O)NN(CC(=O)O)C(=O)/C=C/C(=O)OCc1ccccc1 (relative stereo)

Outgoing:
1. 6,000 M^−1s^−1
2. 1,700,000 M^−1s^−1
